Test system: MDA-MB-435
Test: NCI tumour cell line growth inhibition, 48 h
readout-label: TGI (µM)
Report the figure in µM without appending any unit label.

molecule	readout-label	recorded-value
COC(=O)/C=C\C(C#N)(C#N)N=Cc1cccc(OC)c1	TGI	13.5
O=C(CCl)NCCNc1nccc(Nc2ccc(S(=O)(=O)Nc3ccccn3)cc2)n1	TGI	7.13
COc1cc(C2CC(c3cccc(Nc4ccnc5cc(Cl)ccc45)c3)=NN2c2ccc(Cl)cc2)cc(OC)c1OC (stereo not given)	TGI	6.58
O=C1C(=C(C(F)(F)Cl)C(F)(F)Cl)C2CCC1C2 (stereo not given)	TGI	3.81
O=C(CC1(O)C(=O)N(Cc2ccccc2)c2ccc(Cl)cc21)c1ccc(C(=O)NCC2CCC3(CC2)OOC2(CCCCC2)OO3)cc1 (stereo not given)	TGI	1.4

Inquiry: Please look up its TGI: COc1ccc(/C=C/C(=O)/C=C/c2ccc(OC)cc2OC)c(OC)c1
Reply text: 8.24

Inquiry: Again, but for COc1ccc(/C=C2/CSCC3=C2NC(=S)NC3c2ccc(OC)c(OC)c2OC)c(OC)c1OC (stereo not given)
Reply text: 61.4

Inquiry: Again, but for Oc1ccc(Nc2ccc3ccccc3c2)cc1
Reply text: 14

Inquiry: Again, but for CN(C)CCN1C(=O)c2cccc3cc([N+](=O)[O-])cc(c23)C1=O
Reply text: 4.66

Inquiry: Again, but for CC(=O)OC1CCC2(C)C(CCC3C2CC(=O)C2(C)C3CC(N3CC3)C2C(C)=O)C1 (stereo not given)
Reply text: 51.5

Inquiry: Again, but for N#Cc1c(NCc2ccccc2)nc(NCc2ccccc2)c(C#N)c1-c1ccc(O)cc1
Reply text: 69.8

Inquiry: Again, but for COc1ccccc1Cc1ccc(C2C=CC3(CC(=O)C=C3C)C(=O)C2)o1 (stereo not given)
Reply text: 46.8

// data source = PubChem BioAssay (NCI)
